This collection of values is drawn from patent US9492444B2.

methodDescription: General solubility of exemplary components
Format: physicochemical
conditionNotes: 200 proof ethanol, filtered through 0.22 micrometer PTFE filter

{"columns": ["compound", "Alcohol Solubility (tested)"],
 "data": [
  ["CCN(Cc1cccc(S(=O)(=O)[O-])c1)c1ccc(C(=C2C=CC(=[N+](CC)Cc3cccc(S(=O)(=O)[O-])c3)C=C2)c2ccccc2S(=O)(=O)[O-])cc1.[Na+].[Na+]", "Yes"],
  ["COc1cc(S(=O)(=O)[O-])c(C)cc1N=Nc1c(O)ccc2cc(S(=O)(=O)[O-])ccc12.[Na+].[Na+]", "Yes"],
  ["O=C([O-])C1=NN(c2ccc(S(=O)(=O)[O-])cc2)C(=O)C1N=Nc1ccc(S(=O)(=O)[O-])cc1.[Na+].[Na+].[Na+] (stereo not shown)", "Yes"],
  ["O=C1/C(=C2\\Nc3ccc(S(=O)(=O)[O-])cc3C2=O)Nc2ccc(S(=O)(=O)[O-])cc21.[Na+].[Na+]", "Yes"]
]}
